- System: MDA-N
- EXPERIMENTAL PROTOCOL: NCI tumour cell line growth inhibition, 48 h
Activity calls are given as the source filed them. Rule as the data show it: active = GI50 up to about 1.1 µM and inactive = higher. Residues, ends and D or L forms follow the SMILES beside them. *: point of attachment. Bn = c1ccc(C*)cc1
MEASUREMENT LABEL: GI50

Consider the compound c1ccc([P+](Cc2ccc(C[P+](c3ccccc3)(c3ccccc3)c3ccccc3)cc2)(c2ccccc2)c2ccccc2)cc1 and give its measured GI50.
31 µM (inactive)

Consider the compound CN1CCC(O)(OC(=O)C(c2ccccc2)C2(O)CCCC2)CC1 (configuration not stated) and give its measured GI50.
> 100 µM (inactive)

Consider the compound COC(=O)C(CC(C)C)NC(=O)C(N)Cc1ccc(OCc2ccccc2)cc1 (configuration not stated) (H-Tyr(Bn)-Leu-OMe; configuration not given here) and give its measured GI50.
> 10 µM (inactive)

Consider the compound N=c1oc2ccc3ccccc3c2cc1-c1nc(O)c2ccccc2n1 and give its measured GI50.
46.2 µM (inactive)

Consider the compound CC1OC(OC2C(OC(=O)[C@]34CCC(C)(C)C[C@H]3C3=CC[C@@H]5[C@@]6(C)CC[C@H](OC7OC(C(=O)O)C(O)C(O)C7O)C(C)(C)[C@@H]6CC[C@@]5(C)[C@]3(C)C[C@H]4O)OCC(O)C2O)C(O)C(OC2OCC(O)(CO)C2O)C1OC1OCC(O)C(O)C1O (some centres not stated) and give its measured GI50.
4.31 µM (inactive)

Consider the compound O=[N+]([O-])c1ccc2c(c1)Nc1c3ccccc3nc3cccc-2c13 and give its measured GI50.
3.62 µM (inactive)

Consider the compound CCCCCCOc1ccc(NC2=C(Cl)C(=O)c3cccnc3C2=O)cc1 and give its measured GI50.
1.59 µM (inactive)

====

- Tested on: NCI-H460
- EXPERIMENTAL PROTOCOL: NCI tumour cell line growth inhibition, 48 h
Activity calls are given as the source filed them. Cut-off read from the data, not from the text of the source: active = GI50 up to about 1.1 µM and inactive = higher.
Respond using exactly one of the listed classes: active, inactive

Could you kindly confirm the outcome this assay logged for COC(=O)c1ccc(/C=C2\Oc3ccccc3C2=O)cc1 ?
inactive

Could you kindly confirm the outcome this assay logged for COC(=O)[C@H]1ON2O[C@@H](O[C@H]3CCCC[C@@H]3C(C)(C)c3ccccc3)C[C@@H]3CC[C@H]1[C@@]32C ?
inactive

Could you kindly confirm the outcome this assay logged for C=C1CC2(CC(c3ccccc3Cl)OC(c3ccccc3Cl)C2)OC1=O (stereo unspecified) ?
inactive

Could you kindly confirm the outcome this assay logged for Oc1cccc2c1NC1=C(CCC/C1=C\c1ccccc1)C2 ?
inactive

Could you kindly confirm the outcome this assay logged for O=CCC1CCCCC1 ?
inactive

Could you kindly confirm the outcome this assay logged for NC(CCSCCF)C(=O)O (stereo unspecified) ?
inactive

Could you kindly confirm the outcome this assay logged for COc1ccc2c(c1)c1c(n2CCN(C)C)-c2cccc(OC)c2CC1 ?
inactive

Could you kindly confirm the outcome this assay logged for Cc1ccc(NC(=O)C2C3CCC(O3)C2C(=O)O)cc1 (stereo unspecified) ?
inactive

Could you kindly confirm the outcome this assay logged for O=S1(=O)NC2CCC3NS(=O)(=O)NC4CCC(N1)N4S(=O)(=O)N23 (stereo unspecified) ?
inactive

Could you kindly confirm the outcome this assay logged for Cc1cc(O)c(C(C)C)cc1NC(=O)Nc1cccc2ccccc12 ?
inactive

Could you kindly confirm the outcome this assay logged for N#CC(C#N)=C(N)/C(C#N)=C\c1ccnc2ccccc12 ?
inactive

Could you kindly confirm the outcome this assay logged for Cc1cccc(C2=C/C(=C(\SS/C(C(=O)c3ccc(OCC(=O)O)c(Cl)c3Cl)=C3\C=C(c4cccc(C)c4)SS3)C(=O)c3ccc(OCC(=O)O)c(Cl)c3Cl)SS2)c1 ?
inactive

Could you kindly confirm the outcome this assay logged for CN(C)C1(N(C)C)Oc2c(c(=O)n(C)c(=O)n2C)C(c2ccc(F)cc2)C1(F)F (stereo unspecified) ?
inactive

Could you kindly confirm the outcome this assay logged for OC(CCN1CCN(CCOC(c2ccc(F)cc2)c2ccc(F)cc2)CC1)c1ccccc1 (stereo unspecified) ?
inactive

Could you kindly confirm the outcome this assay logged for COC(=O)C1=C(C(=O)OC)N(c2ccc(OC)cc2[N+](=O)[O-])C(c2ccc(C)cc2)=CC1c1ccc(OC)cc1OC (stereo unspecified) ?
inactive

Could you kindly confirm the outcome this assay logged for O=[N+]([O-])C(C(Cl)=C(Cl)Cl)=C(N1CCCCC1)N1CCCCC1 ?
inactive

Could you kindly confirm the outcome this assay logged for CC(NCc1c(O)ccc2c(-c3ccccc3)cc(=O)oc12)C(=O)O (stereo unspecified) ?
inactive

Could you kindly confirm the outcome this assay logged for O=[N+]([O-])C1C2C=CC(C2)[C@H]1c1ccco1 (stereo partly specified) ?
inactive

Could you kindly confirm the outcome this assay logged for CN(C)C(=O)C(F)(F)C(c1ccc(F)cc1)C1C(=O)N(C)C(=O)N(C)C1=O (stereo unspecified) ?
inactive

Could you kindly confirm the outcome this assay logged for COc1cc(Cc2ccc3c(c2C#N)N(C)c2ccccc2S3)cc(OC)c1OC ?
inactive

Could you kindly confirm the outcome this assay logged for COc1ccc(P2(=S)Oc3ccccc3-c3ccccc3O2)cc1 ?
active

Could you kindly confirm the outcome this assay logged for COc1cc(CSc2ccc(O)cc2)cc(OC)c1OC ?
inactive

Could you kindly confirm the outcome this assay logged for CC(NCc1c(O)ccc2ccc(=O)oc12)C(=O)O (stereo unspecified) ?
inactive

Could you kindly confirm the outcome this assay logged for OC1[C@H]([C@H]2CCCC[C@@H]2O)CCC[C@@H]1[C@@H]1CCCC[C@H]1O (stereo partly specified) ?
inactive

Could you kindly confirm the outcome this assay logged for OCC1CCCC(n2cnc3c(S)ncnc32)O1 (stereo unspecified) ?
inactive

Could you kindly confirm the outcome this assay logged for COC(=O)CCc1cc(OC)c2oc(-c3ccc(OC)c(OC)c3)c(CO)c2c1 ?
inactive

Could you kindly confirm the outcome this assay logged for Clc1ccc(Nc2nnc(CNc3ccc(-c4nnc(Nc5ccc(Cl)cc5)s4)cc3)s2)cc1 ?
inactive

Could you kindly confirm the outcome this assay logged for O=C(NN1C(=O)C(Cl)C1c1ccccc1Cl)c1ccccc1O (stereo unspecified) ?
inactive

Could you kindly confirm the outcome this assay logged for Nc1nc(N)c(C2=CCN(Cc3ccccc3)CC2)c(=O)[nH]1 ?
inactive

Could you kindly confirm the outcome this assay logged for CC(=O)/C(=N\O)C(=O)NCc1ccccc1 ?
inactive

Could you kindly confirm the outcome this assay logged for C=C1CC(CN2CCC(=O)NC2=O)(c2ccccc2)OC1=O (stereo unspecified) ?
inactive

Could you kindly confirm the outcome this assay logged for CCOC(=O)C1=C(C)N(Cc2ccccc2)C2(O)C=CC(O)=C3C(=O)c4ccccc4C(=O)C312 (stereo unspecified) ?
inactive

Could you kindly confirm the outcome this assay logged for Cc1cc(NS(=O)(=O)c2ccc(NC(=O)c3cccc4c(Nc5ccc(S(N)(=O)=O)cc5)c5ccccc5nc34)cc2)no1 ?
inactive

Could you kindly confirm the outcome this assay logged for O=C(c1ccccc1F)c1c(NCc2ccccc2)c(=O)c1=O ?
inactive

Could you kindly confirm the outcome this assay logged for CCCCn1c2c(n(CCCC)c1=S)-c1c(n(CCCC)c(=S)n1CCCC)SSc1c(n(CCCC)c(=S)n1CCCC)-c1c(n(CCCC)c(=S)n1CCCC)SSc1c(n(CCCC)c(=S)n1CCCC)-c1c(n(CCCC)c(=S)n1CCCC)SS2 ?
inactive

Could you kindly confirm the outcome this assay logged for COc1cc2cc[n+](C)c(Cc3ccc(Oc4cc(Cc5c6cc(OC)c(OC)cc6cc[n+]5C)ccc4OC)cc3)c2cc1OC ?
inactive

Could you kindly confirm the outcome this assay logged for CCC(=O)C(C(=O)CC)c1c(OC(=O)c2ccccc2)ccc(O)c1C(=O)OC ?
inactive

Could you kindly confirm the outcome this assay logged for N#CC(C#N)=C1NC(=O)CC(=O)N1 ?
inactive

Could you kindly confirm the outcome this assay logged for CC(=O)ON1C(=O)c2cccc3cccc(c23)C1=O ?
inactive

Could you kindly confirm the outcome this assay logged for COC(=O)c1cc(=O)nc2sc3cccc(C)c3n12 ?
inactive

Could you kindly confirm the outcome this assay logged for CC1OC(OCC2COC(O)(Oc3c(-c4ccc(O)c(O)c4)oc4cc(O)cc(O)c4c3=O)C(O)C2O)C(O)C(O)C1O (stereo unspecified) ?
inactive
